Molecular target: IRAK4 (Homo sapiens)
Construct: Degradation of IRAK4 in OCI-LY10 was quantitatively measured using Meso Scale Discovery technology; endogenous in cells; host or cells: OCI-LY10
Sequence (Q9NWZ3 1-460): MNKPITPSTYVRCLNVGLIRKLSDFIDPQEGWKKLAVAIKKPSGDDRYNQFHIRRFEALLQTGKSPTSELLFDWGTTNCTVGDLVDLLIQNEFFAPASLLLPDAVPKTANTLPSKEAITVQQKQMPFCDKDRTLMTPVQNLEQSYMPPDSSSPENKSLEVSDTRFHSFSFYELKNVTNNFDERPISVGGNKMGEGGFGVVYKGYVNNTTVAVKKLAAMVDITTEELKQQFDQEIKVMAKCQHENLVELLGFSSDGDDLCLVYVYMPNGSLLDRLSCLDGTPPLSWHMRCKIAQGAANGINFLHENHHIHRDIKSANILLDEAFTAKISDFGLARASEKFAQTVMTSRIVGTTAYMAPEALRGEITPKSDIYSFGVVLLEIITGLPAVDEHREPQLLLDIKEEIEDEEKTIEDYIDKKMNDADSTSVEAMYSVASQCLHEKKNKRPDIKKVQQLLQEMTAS
Test: IRAK4 MSD Degradation in OCI-LY10
Type: cell-based
Conditions: OCI-LY10 cells, 4 hrs incubation, MSD; read-out: IRAK4 degradation in OCI-LY10 at 4 hrs: DC50
Give measured DC50 for each item. Keep answers brief.

Note to self: DC50 recorded for CN(C[C@H]1CC[C@H](n2cc(NC(=O)c3cnn4ccc(N5CCC(C)(C)CC5)nc34)c(C(F)F)n2)CC1)C1CCN(c2cccc3c2n(C)c(=O)n3C2CCC(=O)NC2=O)CC1(F)F (stereo partly drawn) was > 200 nM

Note to self: DC50 recorded for `O=C1CCN(c2ccc(C#CCOC3CCN(C[C@H]4CC[C@H](n5cc(NC(=O)c6cnn7ccc(N8C[C@H]9C[C@@H]8CO9)nc67)c(C(F)F)n5)CC4)CC3)cc2)C(=O)N1` was 100 to 200 nM

Note to self: DC50 recorded for Cn1c(=O)n(C2CCC(=O)NC2=O)c2cccc(C#CCN3CCN(C[C@H]4CC[C@H](n5cc(NC(=O)c6cnn7ccc(N8CCC9(CC8)CC9)nc67)c(C(F)F)n5)CC4)CC3)c21 (stereo partly drawn) was > 200 nM

---

Target: IRAK4 (Homo sapiens, UniProt Q9NWZ3)
Construct: Degradation of IRAK4 in OCI-LY10 was quantitatively measured using Meso Scale Discovery technology; endogenous in cells; host or cells: OCI-LY10
Sequence (Q9NWZ3 1-460): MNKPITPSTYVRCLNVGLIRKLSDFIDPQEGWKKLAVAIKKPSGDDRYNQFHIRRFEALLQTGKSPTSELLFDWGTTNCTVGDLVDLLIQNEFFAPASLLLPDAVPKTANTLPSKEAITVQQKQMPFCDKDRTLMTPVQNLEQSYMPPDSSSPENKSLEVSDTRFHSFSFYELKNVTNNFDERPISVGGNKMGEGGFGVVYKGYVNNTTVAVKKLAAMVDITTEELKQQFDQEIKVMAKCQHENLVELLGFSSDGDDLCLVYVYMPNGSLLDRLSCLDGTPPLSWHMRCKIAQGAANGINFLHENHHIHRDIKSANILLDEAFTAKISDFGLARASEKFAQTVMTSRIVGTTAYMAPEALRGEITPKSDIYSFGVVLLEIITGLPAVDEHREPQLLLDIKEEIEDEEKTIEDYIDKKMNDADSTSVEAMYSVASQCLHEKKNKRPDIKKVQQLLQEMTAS
Assay: IRAK4 MSD Degradation in OCI-LY10
Format: cell-based
Conditions: OCI-LY10 cells, 24 hrs incubation, MSD; read-out: IRAK4 degradation in OCI-LY10 at 24 hrs: DC50
readout name: DC50

Note to self: DC50 recorded for Cn1c(=O)n(C2CCC(=O)NC2=O)c2cccc(C#CCN3CCN(C[C@H]4CC[C@H](n5cc(NC(=O)c6cnn7ccc(N8CC(C)(C)OC(C)(C)C8)nc67)c(C(F)F)n5)CC4)CC3)c21 (stereo partly shown) was > 200 nM

Note to self: DC50 recorded for Cn1c(=O)n(C2CCC(=O)NC2=O)c2cccc(C#CCc3ccc(CN4CCC(n5cc(NC(=O)c6cnn7ccc(N8CC9C[C@@H]8CO9)nc67)c(C(F)F)n5)CC4)cc3)c21 (stereo partly shown) was > 200 nM

Note to self: DC50 recorded for Cn1c(=O)n(C2CCC(=O)NC2=O)c2cccc(C#CCN3CCN([C@H]4CC[C@@H](n5cc(NC(=O)c6cnn7ccc(N8C[C@H]9C[C@@H]8CO9)nc67)c(C(F)F)n5)CC4)CC3)c21 (stereo partly shown) was > 200 nM

Note to self: DC50 recorded for Cn1c(=O)n(C2CCC(=O)NC2=O)c2cccc(C3CN([C@@H]4CCN([C@H]5CC[C@H](n6cc(NC(=O)c7cnn8ccc(N9C[C@H]%10C[C@@H]9CO%10)nc78)c(C(F)F)n6)CC5)CC4(F)F)C3)c21 (stereo partly shown) was > 200 nM

Note to self: DC50 recorded for CN(C[C@H]1CC[C@H](n2cc(NC(=O)c3cnn4ccc(N5CC(C)(C)C5)nc34)c(C(F)F)n2)CC1)C1CCN(c2cccc3c2n(C)c(=O)n3C2CCC(=O)NC2=O)CC1(F)F (stereo partly shown) was > 200 nM

Note to self: DC50 recorded for CN(C[C@H]1CC[C@H](n2cc(NC(=O)c3cnn4ccc(N5CC6(COC6)C5)nc34)c(C(F)F)n2)CC1)C1CCN(c2cccc3c2n(C)c(=O)n3C2CCC(=O)NC2=O)CC1(F)F (stereo partly shown) was 10 to 100 nM

Note to self: DC50 recorded for C[C@@H]1CN(c2ccn3ncc(C(=O)Nc4cn([C@H]5CC[C@H](CN6CCN(CC7CN(c8cccc9c8n(C)c(=O)n9C8CCC(=O)NC8=O)C7)CC6)CC5)nc4C(F)F)c3n2)CCO1 (stereo partly shown) was < 10 nM

Note to self: DC50 recorded for Cn1c(=O)n(C2CCC(=O)NC2=O)c2cccc(N3CCN([C@@H]4CCN(C[C@H]5CC[C@H](n6cc(NC(=O)c7cnn8ccc(N9C[C@H]%10C[C@@H]9CO%10)nc78)c(C(F)F)n6)CC5)CC4(F)F)CC3)c21 (stereo partly shown) [I-365] was > 200 nM

Note to self: DC50 recorded for Cn1c(=O)n(C2CCC(=O)NC2=O)c2cccc(C#CCN3CCN(C[C@H]4CC[C@H](n5cc(NC(=O)c6cnn7ccc(C8CCOCC8)nc67)c(C(F)F)n5)CC4)CC3)c21 (stereo partly shown) was < 10 nM

Note to self: DC50 recorded for COc1ccc2c(c1C#CCO[C@H]1CCN(C[C@H]3CC[C@H](n4cc(NC(=O)c5cnn6ccc(N7C[C@H]8C[C@@H]7CO8)nc56)c(C(F)F)n4)CC3)C[C@H]1F)n(C)c(=O)n2C1CCC(=O)NC1=O (stereo partly shown) was > 200 nM
